Where these numbers come from: patent US4321381A

For each of the compounds below, state its Change in heart rate after treatment, 360'.
# Tested on: normotensive rats
# Assay Text: Blood pressure and heart rate in the conscious normotensive rat (NR)
# Type: in vivo
# Experimental Context: 5 mg/kg os, 360'

CN1C[C@H](CC(C#N)C(N)=O)C[C@@H]2c3cccc4[nH]cc(c34)C[C@H]21 (stereo partly drawn); +3 b/min

// each listed compound needs a value for Change in heart rate after treatment, 360'
1. CCNC(=O)C(C#N)C[C@@H]1C[C@@H]2c3cccc4[nH]cc(c34)C[C@H]2N(C)C1 (stereo partly drawn)
2. CN1C[C@H](CC(C#N)C(=O)N2CCCC2)C[C@@H]2c3cccc4[nH]cc(c34)C[C@H]21 (stereo partly drawn)

1: +5 b/min; 2: -5 b/min
